Reported half-life by item:
- Condition label: rat; liver microsomes; pH 7.4; 15.0 min; 1.0 µM
# output: bare number, implied unit min

Worked set:
| Test smiles | Test result |
| --- | --- |
| O=S(=O)(Nc1ccc(-c2ccccc2)cc1)c1ccc(NCc2cccc(Cl)c2O)cc1 | 5.6 |
| Cc1ccc(N2CCC(CNc3nc(-c4ccccc4C(C)C)ncc3C)CC2)cn1 | 2.6 |
| Cc1ccc(Nc2nc(NCCO)c3ccccc3n2)cc1C | 2.42 |
| CC(=O)c1c(C)[nH]c(C(=O)Nc2cccc([S+](=O)([O-])N3CCC(F)(F)CC3)c2)c1C | 2.4 |

Value of half-life reported for the compound `CCOC(=O)C1CCN(C(=O)C2(NC(=O)Nc3ccccc3Cl)CCC2)CC1` is 1.7

Value of half-life reported for the compound `c1ccc2c(N3CCOCC3)nc(-c3ccncc3)nc2c1` is 10

Value of half-life reported for the compound `CC(C)Oc1ccc(CCNC(=O)c2cc3sccc3n2Cc2ccccc2)cc1OC(C)C` is 2.7

Value of half-life reported for the compound `Fc1ccc(Nc2nc(-c3ccncc3Cl)nc3ccccc23)cc1F` is 19

###

Reported half-life by item:
- Condition label: rat; liver microsomes; pH 7.4; 15.0 min; 1.0 µM

| Compound | half-life |
| --- | --- |
| CN(C)c1cccc(-c2cnc(Nc3cccnc3)c3c2CCO3)c1 | 5.25 min |
| CNC(=O)Cn1cc(-c2ccc3c(c2)C(F)CC32NC(=O)N(CC(=O)N(Cc3ccc(F)cc3)[C@@H](C)C(F)(F)F)C2=O)cn1 (stereo partly specified) | 18.9 min |
| COc1cccc(-c2csc(N3CCC(C(N)=O)CC3)n2)c1 | 1.33 min |
| C[C@@]1(c2ncncc2F)NC(=O)c2cc(-c3cn[nH]c3)ccc21 | > 30 min |
| Cn1c(=O)cc(C(=O)NC2CCCc3c2[nH]c2c(Cl)cccc32)c2ccccc21 (stereo unspecified) | 10.1 min |
| Cc1cccc(OCC(=O)Nc2ccc3nc(Nc4cccc(Cl)c4)cc(C)c3c2)c1 | > 30 min |
| COc1ccc(-c2cc(-c3ccccc3)nc(SCC(=O)Nc3ccccc3C)c2C#N)cc1 | 2.47 min |
| COc1cccc(CNc2ccc(S(=O)(=O)Nc3ccc(C4CCNCC4)cc3)cc2)c1O | 29 min |

Value of half-life reported for the compound `COc1ccc2[nH]c3c(c2c1)CCNC31CCN(S(=O)(=O)c2c(C)noc2C)CC1` is > 30 min

Value of half-life reported for the compound OCCOCCN1CCN(C(c2ccccc2)c2ccc(Cl)cc2)CC1 (stereo unspecified) is 5.93 min

Value of half-life reported for the compound `CC(C)(O)C=CC(=O)[C@](C)(O)[C@H]1[C@H](O)C[C@]2(C)[C@@H]3CC=C4[C@@H](C=C(O)C(=O)C4(C)C)[C@]3(C)C(=O)C[C@@]12C` is > 30 min

###

Reported half-life by item:
- Condition label: rat; liver microsomes; pH 7.4; 15.0 min; 1.0 µM
# output: bare number, implied unit min

Worked set:
| Test smiles | Unit tag | half-life |
| --- | --- | --- |
| Fc1cc(Nc2nc(-c3ccncc3)nc3ccccc23)ccc1N1CCCCC1 | min | 5.9 |
| Cc1ccc(C(=O)Nc2ccc3oc(-c4cccnc4)nc3c2)cc1[N+](=O)[O-] | min | 13.2 |

Value of half-life reported for the compound `CC/C=C\C/C=C\C/C=C\C/C=C\C/C=C\C/C=C\CCC(=O)NCCO` is 4.94

Value of half-life reported for the compound `Cc1ccc(S(=O)(=O)N[C@@H](Cc2ccccc2)C(=O)CCl)cc1` is 2.36

###

- Condition label: rat; liver microsomes; pH 7.4; 15.0 min; 1.0 µM
Reported half-life by item:

Worked set:
| Compound | Test result |
| --- | --- |
| CC(=O)N1CCc2c(sc3c2c(=O)n(-c2ccccc2)c(=O)n3CC(=O)c2ccccc2)C1 | > 30 min |
| CN1C[C@@H]2C[C@H]1CN2c1cc2c(cc1F)c(=O)c(C(=O)O)cn2C1CC1 | > 30 min |
| Clc1ccc2ncc(-c3cccc(NC4CCNCC4)n3)n2c1 | > 30 min |

Value of half-life reported for the compound `COc1cc(/C=C(\C#N)C(=O)c2ccc(O)c(O)c2)cc(I)c1O` is > 30 min

Value of half-life reported for the compound `CC1=C[C@@H](CN2C(=O)C(C)=C(C)C2=O)[C@H](C(C)C)C[C@H]1Cc1nc2c(C)cccc2[nH]1` is 1.3 min

Value of half-life reported for the compound CCOc1cccc(C(=O)Nc2nc3c(s2)CC(C(C)(C)C)CC3)c1 (centres undefined) is 9.74 min

Value of half-life reported for the compound `CC[C@@]1(O)C(=O)OCc2c1cc1n(c2=O)Cc2c-1nc1ccccc1c2CCNC(C)C` is > 30 min

Value of half-life reported for the compound `Cc1[nH]c2ccccc2c1CN1CCN(c2ccccn2)CC1` is 1.7 min

Value of half-life reported for the compound `COc1ccc(OC)c(C(=O)Nc2nc(-c3ccccc3)cs2)c1` is 20 min

Value of half-life reported for the compound `O=C1Nc2ccccc2/C1=C\c1cc(F)c(O)c(F)c1` is 23 min

Value of half-life reported for the compound `O=C1C(SCCO)=C(SCCO)C(=O)c2ccccc21` is > 30 min

Value of half-life reported for the compound `NC(=O)C1CCN(c2ncc(-c3cccc(N4CCOCC4)c3)s2)CC1` is > 30 min

Value of half-life reported for the compound `CCOC(=O)Nc1ccc(NCc2ccc(F)cc2)nc1N` is > 30 min

Value of half-life reported for the compound `CC(=O)c1c(C)c2cnc(Nc3ccc(N4CCNCC4)cn3)nc2n(C2CCCC2)c1=O` is > 30 min

###

Reported half-life by item:
- Condition label: rat; liver microsomes; pH 7.4; 15.0 min; 1.0 µM

| Molecule | Test result |
| --- | --- |
| COc1ccnc(NC(=S)N2CCN(c3cccc(C(F)(F)F)c3)CC2)c1 | > 30 min |
| CCCCC1CCC(C(=O)Nc2ccc(S(=O)(=O)Nc3nccs3)cc2)CC1 (stereo unspecified) | > 30 min |
| O=C(Nc1nc(-c2ccccc2)cs1)c1ccccc1-n1cnnn1 | > 30 min |
| Oc1ccc(CNc2cccnc2)c2cccnc12 | 3.56 min |

Value of half-life reported for the molecule `O=C(Nc1ccc2oc(-c3cccnc3)nc2c1)c1ccc(-c2ccccc2)o1` is 14.4 min

Value of half-life reported for the molecule `O=S(=O)(Nc1nccs1)c1ccc(NCc2ccc(Cl)cc2O)cc1` is 7.5 min

Value of half-life reported for the molecule `O=C(Cn1c2ncccc2c(=O)n1-c1ccccc1)Nc1ccc(Cl)cc1C(F)(F)F` is 4.81 min

###

- Condition label: rat; liver microsomes; pH 7.4; 15.0 min; 1.0 µM
Experimental readout: half-life (min)
# output: bare number, implied unit min

Worked set:
| Test smiles | Unit tag | Test result |
| --- | --- | --- |
| CCc1ccccc1OC[C@@H](O)CN[C@H]1CCCc2ccccc21 | min | 1.8 |
| Cc1cccc([C@H]2[C@@H]3C=CC[C@@H](C)[C@@H]3C(=O)N2Cc2ccccc2)c1 | min | 1.4 |
| COc1ccc(-n2c(C)c(C(C)=O)c3cc(O)ccc32)cc1 | min | 2.2 |

Would you kindly look at the next entry?
Value of half-life reported for the compound `O=C(Nc1ccc(-c2ccccc2)cc1)[C@H](Cc1ccc(O[S+](=O)([O-])c2cccc3cnccc23)cc1)N[S+](=O)([O-])c1cccc2cnccc12` is 3.1

###

- Condition label: rat; liver microsomes; pH 7.4; 15.0 min; 1.0 µM
Reported half-life by item:
# output: bare number, implied unit min

| Compound | Unit tag | half-life |
| --- | --- | --- |
| CN(C)c1cccc(-c2nccc(N3CCC(C(N)=O)CC3)n2)c1 | min | 8.43 |
| Fc1cc(Nc2nc(-c3ccncc3)nc3ccccc23)ccc1-c1cccnc1 | min | 17 |
| Cc1ccc(S(=O)(=O)Nc2ccccc2C(=O)Nc2nc(-c3ccccc3)c(Br)s2)cc1 | min | 10 |
| COc1ccc(-n2nc(C3CCCN([S+](=O)([O-])c4cccc(C(F)(F)F)c4)C3)[nH]c2=O)cc1 (configuration not stated) | min | 6.33 |
| COC(=O)[C@@]12OC[C@]34[C@H]([C@@H](O)[C@@H]1O)[C@@]1(C)CC(=O)C(O)=C(C)[C@@H]1C[C@H]3OC(=O)[C@H](OC(=O)/C=C(\C)C(C)C)[C@@H]24 | min | 10.1 |
| O=[S+]([O-])(Nc1nccs1)c1ccc(NCc2cccc(Cl)c2)cc1 | min | 15 |

Value of half-life reported for the compound `Cc1ccc(-c2c(CN3CCN(c4cccc(C(F)(F)F)c4)CC3)csc2C)cc1` is 18.5

Value of half-life reported for the compound `O=C(Nc1cccc(F)c1)c1cc(-c2ccc[nH]2)n[nH]1` is 9.45
